Entries and their measured IC50 follow.
target: TDO (Homo sapiens); test: A172 kynurenine cell-based assay; set-up: This assay utilised cancer cells which expressed either TDO or IDO; endogenous in cells; host or cells: A172 (human glioblastoma); conditions: A172 human glioblastoma cells, 48 hours, 500 μM L-tryptophan; read-out: A172 Kynurenine cell based assay pIC50 (converted)

Worked examples, 4 molecules total:
>>> print(df.to_string())
                                   molecule  test_value
0  CC(=O)N1C2CCC1CN(c1cc(Cl)cc3[nH]ncc13)C2 [Compound 231]   < 3.16 µM
1  O=C1NC2(CCN(c3cc(Cl)cc4[nH]ncc34)CC2)C(=O)N1CCO [Compound 330]   < 3.16 µM
2  CS(=O)(=O)N1CCC(c2cc(C(F)F)cc3[nH]ncc23)CC1 [Compound 387]   < 3.16 µM
3  CNC(=O)c1ccc(C2CCN(c3cc(Cl)cc4[nH]ncc34)CC2)cc1 [Compound 440]   < 3.16 µM

Please find the next molecule below.
Entry CC(=O)N1CCN(c2cc(C(C)C)cc3[nH]ncc23)CC1(C)C [Compound 147] : IC50 on TDO (Homo sapiens) = 3.24 to 31.6 µM

* * *

target: TDO (Homo sapiens, UniProt P48775); test: A172 kynurenine cell-based assay; design: This assay utilised cancer cells which expressed either TDO or IDO; endogenous in cells; host or cells: A172 (human glioblastoma); settings: A172 human glioblastoma cells, 48 hours, 500 μM L-tryptophan; read-out: A172 Kynurenine cell based assay pIC50 (converted)
Sequence (P48775 whole entry): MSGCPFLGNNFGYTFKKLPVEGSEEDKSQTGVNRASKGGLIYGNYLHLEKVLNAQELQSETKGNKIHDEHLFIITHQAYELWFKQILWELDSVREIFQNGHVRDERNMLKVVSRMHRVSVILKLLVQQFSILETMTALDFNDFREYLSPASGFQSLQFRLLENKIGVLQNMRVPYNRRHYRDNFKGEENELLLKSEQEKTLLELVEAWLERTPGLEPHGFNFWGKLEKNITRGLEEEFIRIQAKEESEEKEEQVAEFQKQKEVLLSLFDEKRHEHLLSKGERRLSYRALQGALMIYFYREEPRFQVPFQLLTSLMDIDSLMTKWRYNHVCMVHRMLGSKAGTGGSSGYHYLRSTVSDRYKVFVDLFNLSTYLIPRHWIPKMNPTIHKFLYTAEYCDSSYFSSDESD
Quantity kind: IC50

>>> print(df.to_string())
                                   molecule                         test_system       test_value
0    CCCS(=O)(=O)N1CCN(c2cccc3[nH]ncc23)CC1  TDO (Homo sapiens, UniProt P48775)  3.24 to 31.6 µM
1   CC(=O)N1CCN(c2cc(C3CC3)cc3[nH]ncc23)CC1  TDO (Homo sapiens, UniProt P48775)  3.24 to 31.6 µM
2  CS(=O)(=O)Nc1ccc(-c2cc(Cl)cc3[nH]ncc23)cc1  TDO (Homo sapiens, UniProt P48775)        < 3.16 µM
3  CC(=O)N(C)CC1CCCN(c2cc(Cl)cc3[nH]ncc23)C1 (stereo not drawn)  TDO (Homo sapiens, UniProt P48775)  3.24 to 31.6 µM
4  CCCS(=O)(=O)N1CCN(c2cc(Cl)cc3[nH]ncc23)CC1  TDO (Homo sapiens, UniProt P48775)        < 3.16 µM
5  C[C@@H]1CN(c2cc(Cl)cc3[nH]ncc23)C[C@@H](C)N1S(C)(=O)=O  TDO (Homo sapiens, UniProt P48775)        < 3.16 µM
6  CN1CC2CN(c3cc(Cl)cc4[nH]ncc34)CCN2C1=O (stereo not drawn)  TDO (Homo sapiens, UniProt P48775)        < 3.16 µM
7           OC1(c2cc(Cl)cc3[nH]ncc23)CCOCC1  TDO (Homo sapiens, UniProt P48775)        < 3.16 µM

Please find the next molecule below.
What the record says about CNC(=O)C1CCCN(c2cc(Cl)cc3[nH]ncc23)C1 (stereo not drawn) : IC50 is 3.24 to 31.6 µM

* * *

target: IDO (Homo sapiens, UniProt P14902); experiment: SKOV3 kynurenine cell-based assay (IDO induced by IFN-γ); design: IDO expression was induced in the SKOV3 cells by the addition of 500 ng/ml IFN-γ; endogenous in cells; host or cells: SKOV3 (human ovarian adenocarcinoma), induced with IFN-γ; conditions: SKOV3 human ovarian adenocarcinoma cells, 500 ng/ml IFN-γ, 48 hours, 500 μM L-tryptophan; read-out: SKOV3 Kynurenine cell based assay pIC50 (converted)
Sequence (P14902 whole entry): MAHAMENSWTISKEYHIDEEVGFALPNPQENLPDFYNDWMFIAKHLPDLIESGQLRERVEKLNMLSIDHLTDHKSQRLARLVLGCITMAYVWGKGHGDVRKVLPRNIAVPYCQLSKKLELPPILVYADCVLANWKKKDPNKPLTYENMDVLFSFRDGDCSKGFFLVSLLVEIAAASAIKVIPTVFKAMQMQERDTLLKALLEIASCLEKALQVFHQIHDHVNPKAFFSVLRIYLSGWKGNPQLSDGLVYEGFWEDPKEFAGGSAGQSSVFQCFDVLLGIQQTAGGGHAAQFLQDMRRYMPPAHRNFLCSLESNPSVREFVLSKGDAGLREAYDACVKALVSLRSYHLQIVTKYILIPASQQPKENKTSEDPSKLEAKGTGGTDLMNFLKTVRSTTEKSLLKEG
Entries and their measured IC50 follow.

Worked examples, 8 compounds total:
>>> df
                                   compound                         test_system       test_value
0  CC(=O)N(C)CC1CCCN(c2cc(Cl)cc3[nH]ncc23)C1 (stereo not drawn)  IDO (Homo sapiens, UniProt P14902)  3.24 to 31.6 µM
1  CC(C)C(=O)N1CCN(c2cc(Cl)cc3[nH]ncc23)CC1  IDO (Homo sapiens, UniProt P14902)  3.24 to 31.6 µM
2  CN(C)S(=O)(=O)N1CCN(c2cc(Cl)cc3[nH]ncc23)CC1  IDO (Homo sapiens, UniProt P14902)  3.24 to 31.6 µM
3  O=C1NC2(CCN(c3cc(Cl)cc4[nH]ncc34)CC2)C(=O)N1Cc1ccccc1  IDO (Homo sapiens, UniProt P14902)        < 3.16 µM
4  CCc1cc(N2CCN(S(C)(=O)=O)C(C)(C)C2)c2cn[nH]c2c1  IDO (Homo sapiens, UniProt P14902)        < 3.16 µM
5  CNS(=O)(=O)N1CCC(c2cc(Cl)cc3[nH]ncc23)CC1  IDO (Homo sapiens, UniProt P14902)  3.24 to 31.6 µM
6  CS(=O)(=O)c1ccc(-c2cc(Cl)cc3[nH]ncc23)cc1Cl  IDO (Homo sapiens, UniProt P14902)        < 3.16 µM
7  CS(=O)(=O)N1CCN(c2cc(Cl)cc3[nH]ncc23)CC1  IDO (Homo sapiens, UniProt P14902)  3.24 to 31.6 µM

What the record says about CC(=O)Nc1ccc2c(c1)CCN(c1cc(Cl)cc3[nH]ncc13)C2 : IC50 is 3.24 to 31.6 µM

* * *

biological target: UniProt:P14902; experiment: hIDO biochemical coupled assay; details: 45 μM L-tryptophan, 17 minutes, room temperature; read-out: hIDO biochemical assay pIC50 (converted)
Quantity kind: IC50

Worked examples, 6 molecules total:
>>> print(df.to_string())
                                   molecule       test_value
0  CN(C)S(=O)(=O)c1ccc(-c2cc(Cl)cc3[nH]ncc23)cc1 [Compound 277]         > 100 µM
1  CNC(=O)C1CCCN(c2cc(Cl)cc3[nH]ncc23)C1 (stereo not shown) [Compound 210]         > 100 µM
2  CC(=O)N1CC2CCC1CN2c1cc(Cl)cc2[nH]ncc12 (stereo not shown) [Compound 233]   32.4 to 100 µM
3  Clc1cc(N2CCC(c3ccccc3)CC2)c2cn[nH]c2c1 [Compound 183]  3.24 to 31.6 µM
4  CS(=O)(=O)N1CCN(c2cc(Cl)cc3c(N)n[nH]c23)CC1 [Compound 306]         > 100 µM
5  CS(=O)(=O)NCC1CCCN(c2cc(Cl)cc3[nH]ncc23)C1 (stereo not shown) [Compound 284]         > 100 µM

Entry CC(=O)N(C)CC1CCN(c2cc(Cl)cc3[nH]ncc23)CC1 [Compound 282] : IC50 on UniProt:P14902 = 32.4 to 100 µM

Entry CC(=O)N1C2CCC1CN(c1cc(Cl)cc3[nH]ncc13)C2 [Compound 231] : IC50 on UniProt:P14902 = 3.24 to 31.6 µM

* * *

Entries and their measured IC50 follow.
target: TDO (Homo sapiens, UniProt P48775); assay: hTDO biochemical coupled assay; conditions: 330 μM L-tryptophan, 17 minutes, room temperature; read-out: hTDO biochemical assay pIC50 (converted)

Worked examples, 4 compounds total:
In [3]: df
Out[3]:
                                   compound  quantity_kind  test_value
0  O=C1NC(=O)C2(CCN(c3cc(Br)cc4[nH]ncc34)CC2)N1 [Compound 290]           IC50   < 3.16 µM
1  CC(=O)N1CCC2(CC1)CN(c1cc(Cl)cc3[nH]ncc13)C2 [Compound 452]           IC50   < 3.16 µM
2  CC(=O)N1CCN(c2cccc3[nH]ncc23)CC1(C)C [Compound 25]           IC50   < 3.16 µM
3  CC1(C)CN(c2cc(C(F)(F)F)cc3[nH]ncc23)CCN1S(C)(=O)=O [Compound 78]           IC50   < 3.16 µM

Please find the next compound below.
What the record says about CC(=O)N1CCN(c2cc(C#N)cc3[nH]ncc23)CC1 [Compound 323] : IC50 is > 100 µM

* * *

Entries and their measured IC50 follow.
target: TDO (Homo sapiens); assay: A172 kynurenine cell-based assay; parameters: This assay utilised cancer cells which expressed either TDO or IDO; endogenous in cells; host or cells: A172 (human glioblastoma); conditions: A172 human glioblastoma cells, 48 hours, 500 μM L-tryptophan; read-out: A172 Kynurenine cell based assay pIC50 (converted)

Worked examples, 3 molecules total:
In [3]: df
Out[3]:
                                   molecule  quantity_kind  test_value
0  O=C1NC2(CCN(c3cc(Cl)cc4[nH]ncc34)CC2)C(=O)N1c1ccccc1           IC50   < 3.16 µM
1  CS(=O)(=O)N1CC2(CN(c3cc(Cl)cc4[nH]ncc34)C2)C1           IC50   < 3.16 µM
2      NC(=O)N1CCC(c2cc(Cl)cc3[nH]ncc23)CC1           IC50   < 3.16 µM

Please find the next molecule below.
What the record says about CC(=O)N1CCN(c2cc(Cl)cc3[nH]ncc23)CC1CO (stereo not shown) : IC50 is < 3.16 µM

Source: patent US10590086B2
